// data source = patent US12209071B2

- measured_target: TrkB (Homo sapiens)
- Sequence (Q16620 32-822): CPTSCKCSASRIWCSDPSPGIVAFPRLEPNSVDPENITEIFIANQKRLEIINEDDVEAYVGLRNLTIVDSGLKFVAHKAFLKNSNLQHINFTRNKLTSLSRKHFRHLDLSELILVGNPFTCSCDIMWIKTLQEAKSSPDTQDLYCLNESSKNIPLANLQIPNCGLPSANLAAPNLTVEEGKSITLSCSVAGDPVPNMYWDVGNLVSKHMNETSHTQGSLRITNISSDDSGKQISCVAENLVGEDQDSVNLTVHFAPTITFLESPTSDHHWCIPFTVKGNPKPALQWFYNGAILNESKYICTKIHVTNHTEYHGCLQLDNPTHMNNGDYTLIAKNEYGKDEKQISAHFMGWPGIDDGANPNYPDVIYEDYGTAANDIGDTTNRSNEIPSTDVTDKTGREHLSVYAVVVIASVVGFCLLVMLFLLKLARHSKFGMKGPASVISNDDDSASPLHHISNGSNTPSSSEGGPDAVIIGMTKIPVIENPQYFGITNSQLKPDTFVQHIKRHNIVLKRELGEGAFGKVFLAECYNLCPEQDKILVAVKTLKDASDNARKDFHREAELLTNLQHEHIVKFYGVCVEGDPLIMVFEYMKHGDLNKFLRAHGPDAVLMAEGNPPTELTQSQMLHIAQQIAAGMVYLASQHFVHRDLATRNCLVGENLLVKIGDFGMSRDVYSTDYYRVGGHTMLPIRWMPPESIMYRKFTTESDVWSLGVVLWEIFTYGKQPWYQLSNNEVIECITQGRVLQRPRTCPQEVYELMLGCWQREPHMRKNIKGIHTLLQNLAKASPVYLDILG
- test: Enzyme Fragment Complementation cell-based assay, TrkB
- experimental_parameters: U2OS-cells over-expressing TrkB; ligand 10 ng/mL; 3 hours incubation
Would you mind telling me the reported pEC50 of each entry?
Here pEC50 is given on a logarithmic scale as minus log10 of the concentration in mol/L.

Exam item: I would be grateful if you could share the reported pEC50 for CN(C)C(=O)COc1cc(-n2c(=O)[nH]c(=O)n(-c3ccccc3)c2=O)ccc1Oc1ccccc1 [Example 77] .
Marked response: 6.44

Exam item: Fill in: pEC50 of COc1ccc(-n2c(=O)[nH]c(=O)n(-c3ccc(Oc4ccccc4)cc3)c2=O)cc1 [Example 2] is ___
Marked response: 5.62

Exam item: Looking for the measured pEC50 of O=c1[nH]c(=O)n(-c2ccc(Oc3ccccc3)c(OCC3COC3)c2)c(=O)n1-c1ccccc1 [Example 25] , can you help?
Marked response: 6.10

Exam item: Reported pEC50, molecule Cc1cc(-n2c(=O)[nH]c(=O)n(-c3ccc(Oc4ccccc4)c(C)c3)c2=O)ccc1Oc1ccccc1 [Example 67] : ____
Marked response: 4.59

Exam item: Given the entry Cn1c(=O)[nH]c(=O)n(-c2ccc3c(cnn3-c3ccccc3)c2)c1=O [Example 31] , report its measured pEC50.
Marked response: 4.16

Exam item: I am curious: what pEC50 value has been reported for COCCOc1cc(-n2c(=O)[nH]c(=O)n(-c3cccc(C)c3)c2=O)ccc1Oc1ccccc1 [Example 57] ?
Marked response: 6.92

Exam item: Suppose we examine the molecule Cc1cc(-n2c(=O)[nH]c(=O)n(-c3ccccc3)c2=O)c(C)cc1Oc1ccccc1 [Example 54] ; what pEC50 value has been reported?
Marked response: 6.51

Exam item: Please give the measured pEC50 for this molecule: Cc1cc(-n2c(=O)[nH]c(=O)n(-c3ccccc3)c2=O)ccc1Cc1ccccc1 [Example 42]
Marked response: 6.55
